Test system: HCT-116
Assay: NCI tumour cell line growth inhibition, 48 h
Calls of active or inactive are those of the source. Cut-off read from the data, not from the text of the source: active = GI50 up to about 1.1 µM and inactive = higher.
Answer with one of the outcomes given here: active, inactive

Example results:
Any idea what this test logged for CC[C@]1(O)CC(OC2CC(N(C)C)C(O)C(C)O2)c2c(cc3c(c2O)C(=O)c2c(O)cccc2C3=O)[C@@H]1C(=O)OC (some centres not stated) ?
active

Any idea what this test logged for CC(C)(C)N/N=C(\C(=O)NC1=C(Cl)C(=O)c2ccccc2C1=O)C1C=CCS1(=O)=O (configuration not stated) ?
inactive

Any idea what this test logged for Fc1ccc(C(OCCN2CC3CCC(C2)N3CCCc2ccccc2)c2ccc(F)cc2)cc1 ?
inactive

Any idea what this test logged for C=C=C(Sc1ccccc1)C(C)(C)O ?
inactive

Any idea what this test logged for O=C1/C(=C/c2cccc(Br)c2)CSC/C1=C\c1cccc(Br)c1 ?
inactive

Any idea what this test logged for CC(=O)C(CN1CCCCC1)C(c1ccccc1)c1c(O)c2ccccc2oc1=O (configuration not stated) ?
inactive

Next compound, please.
Any idea what this test logged for CCCNCCCCC(NC(C)=O)C(=O)NCc1ccccc1 (configuration not stated) ?
inactive
